Could you please report measured Cmax for the items listed next?
- conditionDetails: dog, in vivo, po, 200 nmol/kg
Respond with the bare value in ng/mL.

Input line: Look at this compound and give its reported Cmax. `O=C(c1ccccc1)N1CC[C@@H]1COc1ccc(F)nc1`
Output line: 6.31

Input line: Same thing, different compound: `COc1ccc(C(=O)N2CC[C@@H]2COc2ccc(F)nc2)cc1`
Output line: 7.43

Input line: Moving on to `O=C(c1ccc(F)cc1)N1CC[C@@H]1COc1ccc(F)nc1`
Output line: 3.25

Input line: Quick one: `O=C(c1ccc([N+](=O)[O-])cc1)N1CC[C@@H]1COc1ccc(F)nc1`
Output line: 6.01

Input line: Another compound: `O=C(c1ccc(Cl)cc1)N1CC[C@@H]1COc1ccc(F)nc1`
Output line: 4.54

Input line: Entry to check: `Cc1ccc(C(=O)N2CC[C@@H]2COc2ccc(F)nc2)cc1`
Output line: 7.05

Input line: Another compound to check: `COC(=O)c1ccc(C(=O)N2CC[C@@H]2COc2ccc(F)nc2)cc1`
Output line: 10.31
